This collection of values is drawn from patent US20210347873A1.

molecular target: mouse BLyS protein (mouse, UniProt Q9WU72 69-309); assay: cell-based or functional assay
Sequence (Q9WU72 69-309): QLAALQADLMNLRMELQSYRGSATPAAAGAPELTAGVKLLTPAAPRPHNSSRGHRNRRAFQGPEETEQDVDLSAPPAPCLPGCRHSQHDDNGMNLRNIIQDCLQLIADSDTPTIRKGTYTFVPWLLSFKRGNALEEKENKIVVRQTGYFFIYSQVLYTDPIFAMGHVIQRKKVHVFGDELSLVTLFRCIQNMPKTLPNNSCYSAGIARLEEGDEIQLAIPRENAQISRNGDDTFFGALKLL
Observable: mouse B lymphocyte proliferation (OD450 nm), antibody 0.000256 nM
Return type: number; implicit unit OD450 nm.

Here is how some binders turned out for mouse B lymphocyte proliferation (OD450 nm), antibody 0.000256 nM.
>  <Binder>
L9G7 (antibody, V domains shown, From a human naive scFv phage library; also called human BLyS antibody L9G7) VH: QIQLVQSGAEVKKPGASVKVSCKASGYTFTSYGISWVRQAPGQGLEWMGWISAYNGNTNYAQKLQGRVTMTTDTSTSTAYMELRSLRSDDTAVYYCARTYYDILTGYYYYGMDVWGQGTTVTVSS VL: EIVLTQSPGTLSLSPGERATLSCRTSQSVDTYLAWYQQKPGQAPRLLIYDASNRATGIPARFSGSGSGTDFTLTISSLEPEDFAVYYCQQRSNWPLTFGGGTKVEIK

>  <Output Unit>
OD450 nm

>  <Measured Number>
2430

$$$$
>  <Binder>
2-1G11 (antibody, V domains shown, From a human naive scFv phage library; also called human BLyS antibody 2-1G11) VH: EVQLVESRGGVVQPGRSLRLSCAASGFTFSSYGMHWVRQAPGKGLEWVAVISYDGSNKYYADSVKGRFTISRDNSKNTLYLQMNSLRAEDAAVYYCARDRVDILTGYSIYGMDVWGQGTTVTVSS VL: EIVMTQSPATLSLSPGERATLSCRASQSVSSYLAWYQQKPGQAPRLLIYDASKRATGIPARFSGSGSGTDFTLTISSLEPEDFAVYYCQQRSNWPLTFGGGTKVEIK

>  <Output Unit>
OD450 nm

>  <Measured Number>
2450

$$$$
>  <Binder>
93C6F10D3 (antibody, V domains shown, Mouse hybridoma monoclonal antibody purified on Protein G) VH: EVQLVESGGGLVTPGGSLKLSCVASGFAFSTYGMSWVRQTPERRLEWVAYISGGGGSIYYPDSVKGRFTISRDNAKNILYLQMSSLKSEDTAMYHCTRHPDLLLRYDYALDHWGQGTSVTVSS VL: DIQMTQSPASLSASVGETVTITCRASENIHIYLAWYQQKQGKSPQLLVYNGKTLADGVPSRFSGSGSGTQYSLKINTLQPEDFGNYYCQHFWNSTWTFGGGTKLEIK

>  <Output Unit>
OD450 nm

>  <Measured Number>
2310

$$$$
>  <Binder>
78C11D2D12 (antibody, V domains shown, Mouse hybridoma monoclonal antibody purified on Protein G) VH: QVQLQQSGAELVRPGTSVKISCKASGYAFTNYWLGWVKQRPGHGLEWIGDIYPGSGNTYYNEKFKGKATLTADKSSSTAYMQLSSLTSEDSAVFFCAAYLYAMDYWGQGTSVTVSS VL: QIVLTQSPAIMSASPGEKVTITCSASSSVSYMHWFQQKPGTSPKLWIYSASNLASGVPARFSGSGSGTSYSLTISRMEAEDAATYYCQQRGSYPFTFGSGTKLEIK

>  <Output Unit>
OD450 nm

>  <Measured Number>
2210

$$$$
>  <Binder>
89A2G5E7 (antibody, V domains shown, Mouse hybridoma monoclonal antibody purified on Protein G) VH: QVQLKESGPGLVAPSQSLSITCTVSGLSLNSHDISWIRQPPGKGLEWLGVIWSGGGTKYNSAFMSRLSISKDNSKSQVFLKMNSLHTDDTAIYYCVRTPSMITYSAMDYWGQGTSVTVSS VL: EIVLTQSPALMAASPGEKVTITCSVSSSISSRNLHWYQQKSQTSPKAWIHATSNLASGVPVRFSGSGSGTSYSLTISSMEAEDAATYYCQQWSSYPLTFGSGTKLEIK

>  <Output Unit>
OD450 nm

>  <Measured Number>
2170

$$$$

I have this binder here, 20D1B6E9E5 (antibody, V domains shown, Mouse hybridoma monoclonal antibody purified on Protein G) VH: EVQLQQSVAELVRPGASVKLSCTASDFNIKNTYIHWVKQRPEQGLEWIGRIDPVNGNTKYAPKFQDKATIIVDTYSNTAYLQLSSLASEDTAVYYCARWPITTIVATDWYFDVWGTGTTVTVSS VL: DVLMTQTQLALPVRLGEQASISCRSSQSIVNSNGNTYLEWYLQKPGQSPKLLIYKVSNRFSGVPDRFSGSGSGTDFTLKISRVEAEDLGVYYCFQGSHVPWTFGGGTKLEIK , and I need its recorded mouse B lymphocyte proliferation (OD450 nm), antibody 0.000256 nM.
2090

// same read-out, input: 97A3C2H4 (antibody, V domains shown, Mouse hybridoma monoclonal antibody purified on Protein G) VH: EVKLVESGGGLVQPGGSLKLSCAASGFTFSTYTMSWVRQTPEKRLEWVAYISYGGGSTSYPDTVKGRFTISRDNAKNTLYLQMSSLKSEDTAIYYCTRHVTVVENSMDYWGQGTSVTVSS VL: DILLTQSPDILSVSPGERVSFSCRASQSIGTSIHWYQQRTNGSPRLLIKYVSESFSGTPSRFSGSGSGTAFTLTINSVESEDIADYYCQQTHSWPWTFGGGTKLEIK
2210

// same read-out, input: 67A2E1D10 (antibody, V domains shown, Mouse hybridoma monoclonal antibody purified on Protein G) VH: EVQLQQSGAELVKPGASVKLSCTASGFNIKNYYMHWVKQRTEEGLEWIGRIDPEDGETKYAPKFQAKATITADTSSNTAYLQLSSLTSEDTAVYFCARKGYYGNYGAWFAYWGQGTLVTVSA VL: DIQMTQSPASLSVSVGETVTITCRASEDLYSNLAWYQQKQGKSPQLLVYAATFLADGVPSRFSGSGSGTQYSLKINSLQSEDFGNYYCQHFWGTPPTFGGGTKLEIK
2390
